Values were extracted from PubChem BioAssay AID463173.

Test system: DeltatarO mutant
Assay: S. aureus survival, RN4220 and DeltatarO strains – OD600, teichoic acid synthesis inhibitors, primary screen (AID 463173)
Settings: S. aureus RN4220 wild type/DeltatarO growth, OD600, 18 h, active compounds read low, screened at 18.75 µg/mL (by protocol)
About 4,300 (8.3%) of roughly 52,000 compounds were called active. This excerpt belongs to a sample that is enriched for actives.
survival by entry:
Kindly answer with a numeric value in %, unit omitted.

Study these solved cases before continuing.
Compound	Value Units	survival
Cc1nnsc1C(=O)Oc1ccc(C(C)C)cc1	%	89
Cc1ccc(Cl)cc1NC(=O)C(=O)NCCc1sc(-c2ccc(F)cc2)nc1C	%	90
Cc1ccc(-c2noc(-c3ccccc3NC(=O)C3CC(=O)N(c4cccc(C)c4)C3)n2)cc1 (stereo not given)	%	66
COc1ccc(-c2nc3ccc(NS(C)(=O)=O)cc3o2)cc1	%	77
COc1ccc(-c2noc(-c3ccccc3NC(=O)c3cc(OC)c(OC)c(OC)c3)n2)cc1	%	34

*Q* Look up survival with DeltatarO mutant for this compound: COc1ccc(-c2nc3ccc(NS(=O)(=O)c4ccccc4)cc3o2)cc1
*A* 36

*Q* One more compound: COc1cccc(-c2noc(-c3cc4ccccc4oc3=O)n2)c1OC
*A* 102

*Q* Request: COc1ccc(-c2nc3ccc(NS(=O)(=O)c4ccc(C)cc4)cc3o2)cc1
*A* 45

*Q* And the next one, COc1ccc(OCC(=O)Nc2ccc(-c3nc4cc(Cl)ccc4o3)cc2)cc1 ?
*A* 134

*Q* Also, Cc1ccc(-c2noc(-c3ccccc3NC(=O)C3CC(=O)N(c4ccc(C)cc4)C3)n2)cc1 (stereo not given) please.
*A* 48

* * *

Entries and their measured survival follow.
Test system: DeltatarO mutant
Assay: S. aureus survival, RN4220 and DeltatarO strains – OD600, teichoic acid synthesis inhibitors, primary screen (AID 463173)
Conditions: S. aureus RN4220 wild type/DeltatarO growth, OD600, 18 h, active compounds read low, screened at 18.75 µg/mL (by protocol)
Hit rate of the full screen: of about 52,000 compounds, about 4,300 (8.3%) were called active. The sample holds actives, similar compounds and a random draw of the others, so the mix is not that of the screen.

Solved entries:
Molecule	survival
CC(=O)c1cccc(NC(=O)Cn2cc(C(=O)c3cccc(Cl)c3)c(=O)c3ccc(C)nc32)c1	56% (inactive)
CC(CCc1ccccc1)NC(=O)Cn1ncc2c3ccccc3n(Cc3cccc(Cl)c3)c2c1=O (stereo not given)	95% (inactive)
Cc1ccc(C(=O)NCC(c2ccco2)S(=O)(=O)c2ccc(Cl)cc2)cc1C (stereo not given)	55% (inactive)

*Q* I'd like to know its survival. The molecule in question is CC(=O)Nc1ccc(NC(=O)CSc2nc3ccccc3nc2N2CCCCC2)cc1
*A* 57% (inactive)

*Q* Now try CC(C)NC(=O)CSc1nc2ccccc2[nH]1 .
*A* 60% (inactive)

* * *

Here the recorded survival is given for each entry.
Test system: DeltatarO mutant
Assay: S. aureus survival, RN4220 and DeltatarO strains – OD600, teichoic acid synthesis inhibitors, primary screen (AID 463173)
Details: S. aureus RN4220 wild type/DeltatarO growth, OD600, 18 h, active compounds read low, screened at 18.75 µg/mL (by protocol)
Among all 52,000 compounds or so, about 4,300 (8.3%) were called active. This is one part of a sample in which actives are shown more often than they occur.
Express the result in % but write the number alone.

Check out these entries, answers already filled in.
COc1cc(NC(=O)Cn2c(=O)n(CC(=O)NCCc3ccc(OC)c(OC)c3)c(=O)c3sccc32)cc(OC)c1 49
COc1cccc(NC(=O)Cn2c(=O)n(CC(=O)NCc3ccc(C)cc3)c(=O)c3sccc32)c1 77

*Q* For O=C(CSc1nc2c([nH]c3ccccc32)c(=O)n1-c1ccc(F)cc1)Nc1ccc2c(c1)OCO2 , what is its reported survival?
*A* 58

*Q* Try this molecule too: COc1cccc(NC(=O)Cn2c(=O)n(CC(=O)NCCc3ccccc3)c(=O)c3sccc32)c1
*A* 45

*Q* Repeat with COc1ccc(CCNC(=O)Cn2c(=O)c3sccc3n(CC(=O)Nc3cccc(C(F)(F)F)c3)c2=O)cc1OC
*A* 82

* * *

System: DeltatarO mutant
Assay: S. aureus survival, RN4220 and DeltatarO strains – OD600, teichoic acid synthesis inhibitors, primary screen (AID 463173)
Details: S. aureus RN4220 wild type/DeltatarO growth, OD600, 18 h, active compounds read low, screened at 18.75 µg/mL (by protocol)
Out of some 52,000 compounds screened, about 4,300 (8.3%) were called active. Many of the other results were omitted from the sample, so actives are more common in it than they were.
Hi! Could you tag entries with survival below 60% as True, and those at or above as False? Much appreciated.

Completed entries (count: 3):
Compound	Cat
CCOC(=O)c1ccc(NC(=O)c2cc(=O)c3ccc(C)c(C)c3o2)cc1	True
Cc1cc(Nc2ccc(Cl)cc2C)nc(-n2nc(C)cc2C)n1	False
COc1ccc(CCNC(=O)c2cc(=O)c3c(C)cc(C)cc3o2)cc1OC	True

*Q* Regarding COc1ccccc1NC(=O)c1cc(=O)c2ccc(C)c(C)c2o1 , kindly confirm whether its survival is beneath 60%.
*A* True

*Q* Similarly, Cc1cc(C)c2c(=O)cc(C(=O)Nc3ccccc3Cl)oc2c1 ?
*A* False

* * *

Test system: DeltatarO mutant
Assay: S. aureus survival, RN4220 and DeltatarO strains – OD600, teichoic acid synthesis inhibitors, primary screen (AID 463173)
Conditions: S. aureus RN4220 wild type/DeltatarO growth, OD600, 18 h, screened at 18.75 µg/mL (by protocol)
Out of some 52,000 compounds screened, about 4,300 (8.3%) were called active. Cut-off read from the data, not from the text of the source: active = survival mostly below about 52% (no sharp cut-off); inactive = mostly above about 56%. Many of the other results were omitted from the sample, so actives are more common in it than they were.
Outcomes you can answer with include only these: 1 (active), -1 (inactive)

Compound	Cat
CCOC(=O)c1c(NC(=O)/C=C/c2ccc(OC)cc2)sc2c1CCC(C)C2 (stereo not given)	1
COC(=O)c1c(NC(=O)/C=C/c2ccc(OC)cc2)sc2c1CCC2	-1
CCOC(=O)c1c(NC(=O)/C=C/c2ccc(Cl)cc2)sc2c1CCC(C)C2 (stereo not given)	1
COc1cc(Cl)c(C)cc1NC(=O)c1cn(CC(C)C)c(=O)c2cc(OC)c(OC)cc12	1

*Q* Give the logged outcome of this assay for the following compound: COc1ccc(/C=C/C(=O)Nc2sc3c(c2C(N)=O)CCC(C)C3)cc1OC (stereo not given)
*A* 1

*Q* Param item: COc1ccc(OC)c(NC(=O)c2cn(CC(C)C)c(=O)c3cc(OC)c(OC)cc23)c1
*A* 1

*Q* Next: Cc1c(-c2nsc(NC(=O)c3ccc(Cl)cc3)n2)nnn1-c1ccc(C(C)C)cc1
*A* -1

*Q* Ok, now CCOC(=O)c1sc(NC(=O)/C=C/c2ccc(C(C)C)cc2)c(C(=O)OCC)c1C
*A* -1

*Q* // query: COc1ccc(-c2cc(C(F)(F)F)nc(SCC(=O)NCc3ccc(Cl)cc3)n2)cc1
*A* -1

*Q* And then CCOc1ccc(C(=O)Nc2c(C(=O)Nc3ccccc3OC)oc3ccccc23)cc1OCC , what is it?
*A* -1

*Q* Try this compound too: COc1ccc(NC(=O)Nc2cn(CC(C)C)c(=O)c3ccccc23)c(OC)c1
*A* -1

*Q* Please give the result for CCOc1ccc(Cn2nnc(C(=O)Nc3ccc(Cl)cc3)c2N)cc1 too.
*A* -1

*Q* Try the compound CCn1cc(C(=O)Nc2ccc(C(C)C)cc2)c2cc(OC)c(OC)cc2c1=O
*A* -1

*Q* # iterate: CCOC(=O)c1c(NC(=O)/C=C/c2ccc(OCC)c(OC)c2)sc2c1CCC2
*A* -1

*Q* Note, next up: CCn1cc(C(=O)N2CCN(c3cccc(Cl)c3)CC2)c2cc(OC)c(OC)cc2c1=O
*A* -1

*Q* Query COc1ccc(NC(=O)c2cn(CC(C)C)c(=O)c3cc(OC)c(OC)cc23)cc1Cl next
*A* -1

*Q* Same lookup for COc1cc(C(=O)Nc2sc3c(c2C(N)=O)CCC(C)C3)cc(OC)c1OC (stereo not given) , please.
*A* -1

*Q* CCOC(=O)c1c(NC(=O)/C=C/c2ccc(OC)c(OC)c2)sc(C(C)=O)c1C ?
*A* -1

*Q* What would you report for O=C1COc2cc(S(=O)(=O)CCC(=O)NC3CCCCC3)c(Cl)cc2N1 ?
*A* -1

*Q* Proceed to COc1cc(NC(=O)CCc2c(C)nc3c4c(C)cc(C)nc4nn3c2C)cc(OC)c1
*A* -1

* * *

System: DeltatarO mutant
Assay: S. aureus survival, RN4220 and DeltatarO strains – OD600, teichoic acid synthesis inhibitors, primary screen (AID 463173)
Conditions: S. aureus RN4220 wild type/DeltatarO growth, OD600, 18 h, active compounds read low, screened at 18.75 µg/mL (by protocol)
In all, about 52,000 compounds went through this assay and about 4,300 (8.3%) were called active. The sample holds actives, similar compounds and a random draw of the others, so the mix is not that of the screen.
Field: label. Allowed values: T (survival < 60%) or F (survival >= 60%).

Examples from the recorded data:
Compound	System Name	Cat
CCOC(=O)c1c(NC(=O)c2cc(-c3ccc(Br)cc3)on2)sc(C)c1C	DeltatarO mutant	F
CCOC(=O)c1c(NC(=O)c2cc(CC)on2)sc(C(C)=O)c1C	DeltatarO mutant	T
CCOC(=O)c1c(NC(=O)c2cc(CC(C)C)on2)sc(C(C)=O)c1C	DeltatarO mutant	T
CCOC(=O)c1sc(NC(=O)c2cc(-c3ccc(F)cc3)on2)c(C(=O)OCC)c1C	DeltatarO mutant	F
CCOC(=O)c1c(NC(=O)c2cc(-c3ccc(Cl)cc3)on2)sc(C)c1C	DeltatarO mutant	F
CCn1cc(/C=C(\NC(=O)c2ccc(OC)cc2)C(=O)NCCCn2ccnc2)c2ccccc21	DeltatarO mutant	F
CCC(C)NC(=O)c1nn(-c2ccc(C)cc2)nc1CO (stereo not given)	DeltatarO mutant	F
CCOC(=O)c1c(NC(=O)c2cc(-c3ccc(OC)cc3)on2)sc(C)c1C	DeltatarO mutant	T

Now take the following compound into account.
*Q* Dear reviewer, please state whether COc1ccc(C(=O)/C=C/c2cn(CC(O)CN3CCc4ccccc43)c3ccccc23)cc1 (stereo not given) has survival strictly beneath 60%.
*A* T
